B1: Transcription factor SOX-11, residues 50 to 117; numbered along this chain, P35716 (parent)
chain: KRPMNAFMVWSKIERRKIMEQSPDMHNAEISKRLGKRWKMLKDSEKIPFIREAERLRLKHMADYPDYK

- Variants of: B1
- assayRemarks: abundance fitness (aPCA) (normalised: wild type 0, dead -1); higher = more abundant; growth selection in yeast, the domain comes from the species named
- conditionParameters: Homo sapiens
Catalogue of abundance fitness readings, one per entry.
propertyMeasured: abundance fitness

{"columns": ["mutantId", "endpointValue"],
 "data": [
  ["S22V", -0.442],
  ["W38M", -0.717],
  ["P23L", -0.287],
  ["R37Y", -0.59],
  ["K32G", -0.245],
  ["P23A", -0.391],
  ["A28M", -0.529],
  ["K39F", -0.455],
  ["K36I", 0.199],
  ["H26F", -0.497],
  ["I30N", -0.701]
]}
